Reference source: patent US20130012436A1

study system: T1, human IL-23 (human, UniProt Q9NPF7 20-189; P29460 23-328)
T1 sequence (looked up) 1: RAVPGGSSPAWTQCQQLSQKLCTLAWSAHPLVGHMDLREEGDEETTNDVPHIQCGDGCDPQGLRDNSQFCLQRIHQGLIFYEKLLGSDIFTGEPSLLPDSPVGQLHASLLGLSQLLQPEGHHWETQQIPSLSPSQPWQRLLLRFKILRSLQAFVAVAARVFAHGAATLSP
T1 sequence (looked up) 2: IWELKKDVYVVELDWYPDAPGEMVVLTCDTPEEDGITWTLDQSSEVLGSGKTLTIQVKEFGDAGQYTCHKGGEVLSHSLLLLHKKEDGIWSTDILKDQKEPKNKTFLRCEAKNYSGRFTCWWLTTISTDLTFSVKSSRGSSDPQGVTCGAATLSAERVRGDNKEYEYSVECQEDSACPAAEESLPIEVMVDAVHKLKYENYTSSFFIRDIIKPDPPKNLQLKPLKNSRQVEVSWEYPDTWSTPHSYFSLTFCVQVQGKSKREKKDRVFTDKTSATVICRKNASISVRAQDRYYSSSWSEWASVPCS
protocol description: cell-based or functional assay
property label: Kit 225 pSTAT3 IC50 (nM)

| binder | recorded number |
| --- | --- |
| 1487G03 (designed binder, captured by anti-His mAb) MGVSDVPRDLEVVAATPTSLLISWGHYPLHVRYYRITYGETGGNSPVQEFTVPAHRYTATISGLKPGVDYTITVYAVTYYNEADYSQIPISINYRTEIDKPSQHHHHHH | 3 |
| 1490G02 (designed binder, captured by anti-His mAb) MGVSDVPRDLEVVAATPTSLLISWGHYPMHVRYYRITYGETGGNSPVQEFTVPPRYHTATISGLKPGVDYTITVYAVTYYMEEKYAVIPISINYRTEIDKPSQHHHHHH | 0.4 |
| 1486D04 (designed binder, captured by anti-His mAb) MGVSDVPRDLEVVAATPTSLLISWGHYPLHIRYYRITYGETGGNSPVQEFTVPRSTHTATISGLKPGVDYTITVYAVTYYNEADYSQIPISINYRTEIDKPSQHHHHHH | 2 |
| 1486B05 (designed binder, captured by anti-His mAb) MGVSDVPRDLEVVAATPTSLLISWGHYPMHVRYYRITYGETGGNSPVQEFTVPSRIYTATISGLKPGVDYTITVYAVTYYNEADYSQIPISINYRTEIDKPSQHHHHHH | 4 |
